The reported numbers originate from ChEMBL document CHEMBL4513216.

assay: Toxicity liver stage against HepG2, at 10uM; format: cell-based; parameters: test concentration 10 uM, cell line HepG2-A16-CD81EGFP; settings: human, HepG2-A16-CD81EGFP cells; read-out: INHIBITION
MEASUREMENT_LABEL: cytotoxicity at 10 µM (%)
Numbers only, in %.

Consider the worked cases shown below.
> print(dat)
                                   compound  quantitative.readout
1  Cc1cc(F)ccc1OC1(C(=O)O)CCN(Cc2c[nH]cn2)CC1                  1.18
2  CCC1CN(CC(=O)Nc2sccc2C#N)CCO1 (configuration not stated)                 -9.29
3  Cc1cc(CN(C)C(=O)C2CC(=O)N(Cc3cccnc3)C2)on1 (configuration not stated)                  2.95
4  CC(C)c1cnc(CN(C)C2CCN(CCS(C)(=O)=O)C2)o1 (configuration not stated)                 0.528
5  Cc1ccc2c(c1)OC(C)CN2C(=O)CCc1cscn1 (configuration not stated)                 -48.5

// for each compound in input: emit cytotoxicity at 10 µM
1. O=C1CCCN1Cc1nnc2n1CCN(Cc1ccco1)C2
2. O=C(O)c1nnn(-c2cc(F)cc(F)c2)c1-c1ccncc1
3. CCCn1nc(C)c(CNC(=O)C2COc3c(cccc3OC)C2)c1C (configuration not stated)
4. Cc1ccc(-c2noc([C@@H]3C[C@H](NC(=O)CC(C)(C)C)CN3C)n2)cc1
5. CCS(=O)(=O)N1CC[C@@H]2[C@H](CC1)N(Cc1cccc(C)n1)CCS2(=O)=O
6. Cc1cccc(CN2CCN3C(=O)NC[C@H]3C2)n1

[0.686, 7.16, -11.8, 7.35, -3.98, -3.3]

// for each compound in input: emit cytotoxicity at 10 µM
1. COc1cc(C)sc1C(=O)N1CCCCC1c1ccccn1 (configuration not stated)
2. COc1cccc(Cl)c1C(C(=O)O)N(C)Cc1nnc(C)o1 (configuration not stated)
3. COc1ccc(CN2C[C@H]3CN(C(=O)c4ccno4)CCN3C2=O)cc1

0.864
-23.4
-4.23
